Recorded values, source patent US9938245B2.

Test: Compound half-life in liver microsomes
Details: mouse, liver microsomes, pH 7.4
MEASURE: half-life at 0.5 μM (min)
Give bare numbers, in min.

CC(C)Oc1ccc(C(=O)CN2CCOCC2)cc1-n1c(CN2CCN(C(=O)COc3ccc(Cl)cc3)CC2)nc2ccccc2c1=O; 23.4

State recorded half-life at 0.5 μM for all listed compounds.
1. CC(=O)c1ccc(OC(C)C)c(-n2c(CN3CCN(C(=O)COc4ccc(Cl)cc4)CC3)nc3ccccc3c2=O)c1
2. COc1ccc(CN2CCN(CC(=O)c3ccc(OC(C)C)c(-n4c(CN5CCN(C(=O)COc6ccc(Cl)cc6)CC5)nc5ccccc5c4=O)c3)CC2)cc1
3. CC(C)Oc1ccc(C(=O)CF)cc1-n1c(CN2CCN(C(=O)COc3ccc(Cl)cc3)CC2)nc2ccccc2c1=O

1. 3.8
2. 3.4
3. 4.7
